- method: activity coefficient (dimensionless); of the first substance listed, at infinite dilution; xn = mol fraction of the nth substance listed
- condition_details: 323 K; 87.4 kPa; Liquid; Chromatography; x1 = 0
activity coefficient overview
endpoint_name: activity coefficient

compound	endpoint_name	assay_value
c1ccncc1 [pyridine] + O=S(=O)([N-]S(=O)(=O)C(F)(F)F)C(F)(F)F.O=S(=O)([N-]S(=O)(=O)C(F)(F)F)C(F)(F)F.c1ccc2cc(C[N+]3(CCCCCCCCC[N+]4(Cc5ccc6ccccc6c5)CCCC4)CCCC3)ccc2c1	activity coefficient	0.266
CCCO [propan-1-ol] + O=S(=O)([N-]S(=O)(=O)C(F)(F)F)C(F)(F)F.O=S(=O)([N-]S(=O)(=O)C(F)(F)F)C(F)(F)F.c1ccc2cc(C[N+]3(CCCCCCCCC[N+]4(Cc5ccc6ccccc6c5)CCCC4)CCCC3)ccc2c1	activity coefficient	1.07
Cc1ccccc1C [1,2-dimethylbenzene] + O=S(=O)([N-]S(=O)(=O)C(F)(F)F)C(F)(F)F.O=S(=O)([N-]S(=O)(=O)C(F)(F)F)C(F)(F)F.c1ccc2cc(C[N+]3(CCCCCCCCC[N+]4(Cc5ccc6ccccc6c5)CCCC4)CCCC3)ccc2c1	activity coefficient	0.852
C1COCCO1 [1,4-dioxane] + O=S(=O)([N-]S(=O)(=O)C(F)(F)F)C(F)(F)F.O=S(=O)([N-]S(=O)(=O)C(F)(F)F)C(F)(F)F.c1ccc2cc(C[N+]3(CCCCCCCCC[N+]4(Cc5ccc6ccccc6c5)CCCC4)CCCC3)ccc2c1	activity coefficient	0.397

Where these numbers come from: the NIST ThermoML archive (doi:10.1016/j.jct.2014.12.023)
